Every entry's value here was drawn from paper PMC10397247.

measuredOn: T1, P6-AA-12HGe-S
T1 chain: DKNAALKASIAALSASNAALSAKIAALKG
testProtocol: two-hybrid library CCmax;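 also: natural log of median RNA to DNA barcode read ratio; higher means stronger binding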
experimentalConditions: mean of both orientations
measuredEndpoint: interaction score

As a guide, the following entries are already answered.
q: Looking for the measured interaction score of DENAALEADIAALDADNAALDAEIAALEG [P5-AA-12HGe-D] , can you help?
a: -2.03

q: Entry DENAALEAHIAALHAHNAALHAEIAALEG [P5-AA-12HGe-H] has what interaction score?
a: -2

q: # input binder: DENAALEAQIAALQAQNAALQAEIAALEG [P5-AA-12HGe-Q] ; wanted: its interaction score
a: 0.0975

q: Please give the measured interaction score for this binder: DENAALEAKIAALKAKNAALKAEIAALEG [4H1401-AA]
a: -0.834

q: Name the reported interaction score value associated with the binder DENAALEARIAALRARNAALRAEIAALEG [P5-AA-12HGe-R]
a: -0.593

q: I would be grateful if you could share the reported interaction score for DENAALEAAIAALAAANAALAAEIAALEG [P5-AA-12HGe-A] .
a: -1.02

[a] DENAALEASIAALSASNAALSAEIAALEG [P5-AA-12HGe-S]
[b] DENAALEAEIAALEAENAALEAEIAALEG [P5-AA-12HGe-E]
q: Given the listed items, does a or b have the lesser reported interaction score? Please respond with the label that marks your chosen entry.
a: a
(a: -2.05, b: -0.0947)
